Target: furin, P09958;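 note: purified furin at 1:10 enzyme:substrate in 50 mM HEPES pH 7.5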
Sequence (P09958 whole entry): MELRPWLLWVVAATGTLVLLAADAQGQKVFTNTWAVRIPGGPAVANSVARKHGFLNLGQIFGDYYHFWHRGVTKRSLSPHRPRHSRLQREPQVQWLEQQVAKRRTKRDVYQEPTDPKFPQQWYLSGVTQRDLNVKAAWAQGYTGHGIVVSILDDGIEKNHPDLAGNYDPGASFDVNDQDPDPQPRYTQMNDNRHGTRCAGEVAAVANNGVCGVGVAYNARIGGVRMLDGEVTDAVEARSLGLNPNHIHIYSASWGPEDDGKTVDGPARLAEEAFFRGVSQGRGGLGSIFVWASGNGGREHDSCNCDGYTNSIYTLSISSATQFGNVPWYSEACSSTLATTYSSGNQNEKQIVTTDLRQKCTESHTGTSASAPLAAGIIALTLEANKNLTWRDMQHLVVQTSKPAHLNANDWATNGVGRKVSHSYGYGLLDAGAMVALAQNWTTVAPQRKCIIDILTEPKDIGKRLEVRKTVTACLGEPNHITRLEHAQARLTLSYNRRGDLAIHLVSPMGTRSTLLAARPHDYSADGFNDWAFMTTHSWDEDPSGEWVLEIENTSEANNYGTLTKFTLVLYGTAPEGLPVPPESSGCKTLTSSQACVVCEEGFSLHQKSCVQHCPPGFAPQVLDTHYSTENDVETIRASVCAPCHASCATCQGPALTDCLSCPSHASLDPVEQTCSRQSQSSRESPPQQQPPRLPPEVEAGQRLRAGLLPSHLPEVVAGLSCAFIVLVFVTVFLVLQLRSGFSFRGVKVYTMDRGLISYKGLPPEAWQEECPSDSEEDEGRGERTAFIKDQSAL
Experiment: furin cleavage Z-score vs untreated control; higher = more cleavage, active = 3.5 or more, inactive = 1 or less, 8 variable residues between constant flanks
Details: 15 min
This is one part of the list. The hit rate among all sequences tested is not known here.
Outcome (select one): 1.0 (active), 0.0 (inactive)

SEQUENCE_RECORD	CLASS_NAME
CATTPCSQSWAGNASASA [HC1902]	0.0
CASPIRTPRAAGNASASA [FS-1083]	1.0
CAILSSLTVTAGNASASA [HC1134]	0.0
CALPNREDRAAGNASASA [FS-54]	0.0

[ask] Outcome? CARCTTPCSGAGNASASA [HC1953]
[reply] 0.0

[ask] Outcome? CALPARDKRAAGNASASA [FS-1026]
[reply] 1.0

[ask] Outcome? CASDIRTEEAAGNASASA [HC1486]
[reply] 0.0
